Biological target: SCD1 (Homo sapiens)
Construct: host or cells: S. cerevisiae ole1Δ strain (W303 pdr1Δ pdr3Δ background), plasmid pRS316 with TDH3 promoter and CYC1 terminator
Sequence (O00767 whole entry): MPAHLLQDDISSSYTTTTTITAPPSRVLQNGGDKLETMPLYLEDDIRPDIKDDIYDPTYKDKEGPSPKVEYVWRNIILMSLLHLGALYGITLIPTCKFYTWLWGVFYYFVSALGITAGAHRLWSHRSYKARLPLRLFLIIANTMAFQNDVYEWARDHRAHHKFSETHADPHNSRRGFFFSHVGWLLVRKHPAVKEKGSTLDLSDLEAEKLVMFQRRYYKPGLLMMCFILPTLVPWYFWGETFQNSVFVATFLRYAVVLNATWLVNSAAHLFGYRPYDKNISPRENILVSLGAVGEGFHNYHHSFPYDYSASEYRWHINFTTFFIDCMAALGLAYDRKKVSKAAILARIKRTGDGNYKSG
Assay: Growth inhibition of humanized yeast strain expressing SCD1 as sole desaturase
Type: cell-based
Settings: humanized yeast strain expressing SCD1
Exercise: for every item that follows, state its recorded IC50.

| Compound | IC50 |
| --- | --- |
| Cn1c(=O)[nH]c2ccc(-c3noc(C4CCN(C(=O)CN5Cc6ccccc6C5=O)CC4)n3)cc21 | 37.3 µM |
| Cc1nn(C)c2cc(-c3noc(C4CCN(C(=O)CNC(=O)c5ccc(C#N)cc5)CC4)n3)ccc12 | 37.8 µM |
| CCN1C(=O)COc2ccc(-c3nc(C4(c5ccc(OC)cc5)CC4)no3)cc21 | > 45 µM |
| COc1ccc(-c2noc(C3CCN(C(=O)c4ccc(C(C)C)cc4)CC3)n2)cc1OC | > 45 µM |
| COc1ccc(-c2noc(C3CCN(C(=O)C4CC(=O)N(c5ccc(C)c(C)c5)C4)CC3)n2)cc1 (stereo not shown) | > 45 µM |
| COc1ccc(-c2noc(C3CCN(C(=O)CNC(=O)c4ccccc4)CC3)n2)cc1OC | 39.2 µM |
| CCOc1ccc(-c2noc(C3CCN(C(=O)N4CCCCC4)CC3)n2)cc1OC | > 45 µM |
| Cc1nn(C)c2cc(-c3nc(C4CCN(C(=O)C5CC(=O)N(c6cccc(C#N)c6)C5)CC4)no3)ccc12 (stereo not shown) | > 45 µM |
| CC(C)n1ncc2ccc(-c3noc(N4CCN(C(=O)c5cccc(F)c5)CC4)n3)cc21 | > 45 µM |
| COc1ccc(-c2noc(C3CCN(C(=O)C4CC(=O)N(c5ccc(C)c(C)c5)C4)CC3)n2)cc1OC (stereo not shown) | > 45 µM |

Items follow; give IC50 for each.
1. COc1ccc(-c2noc(C3CCN(C(=O)CNC(=O)c4cccc(C)c4)CC3)n2)cc1OC
2. Cc1ccc(N2CC(C(=O)N3CCC(c4nc(N5CC6(COC6)C5)no4)CC3)CC2=O)nc1 (stereo not shown)
3. CCOc1ccc(-c2noc(C3CCN(C(=O)[C@H]4CC(=O)N(c5ccccc5)C4)CC3)n2)cc1OC
4. CC(C)n1ncc2ccc(-c3nc(C4CCNC4)no3)cc21 (stereo not shown)
5. CC(C)n1ncc2ccc(-c3noc(C4CCN(C(=O)C5CC(=O)N(c6ccccc6)C5)CC4)n3)cc21 (stereo not shown)
6. Cc1ccc(-c2nc(C3CCN(C(=O)[C@@H]4CC(=O)N(c5ccc(C)c(C)c5)C4)CC3)no2)cc1
7. CCOc1ccc(-c2noc(C3CCN(C(=O)C(C)N4Cc5ccccc5C4=O)CC3)n2)cc1OC (stereo not shown)
8. Cc1nn(C)c2cc(-c3noc(C4CCN(C(=O)CNC(=O)c5ccccc5)CC4)n3)ccc12

["> 45 µM", "> 45 µM", "> 45 µM", "> 45 µM", "> 45 µM", "27.3 µM", "> 45 µM", "> 45 µM"]

State the recorded IC50 for every item in the following list.
1. Cc1nn(C)c2cc(-c3noc(C4CCN(C(=O)[C@H]5CC(=O)N(c6ccccc6)C5)CC4)n3)ccc12
2. COc1ccc(N2CC(C(=O)N3CCC(c4nc(-c5ccc6c(C)nn(C)c6c5)no4)CC3)CC2=O)cc1 (stereo not shown)
3. CCOc1ccc(-c2noc(C3CCN(C(=O)NCCc4ccccc4)CC3)n2)cc1OC
4. CCOc1ccc(-c2noc(C3CCN(C(=O)NC4CC4c4ccccc4)CC3)n2)cc1OC (stereo not shown)
5. Cn1ncc2ccc(-c3noc(C4CCNCC4)n3)cc21
6. COc1ccc(-c2noc(C3CCN(C(=O)[C@H]4CC(=O)N(c5ccc(C)c(C)c5)C4)CC3)n2)cc1OC (single isomer, unassigned)
7. Cc1nn(C)c2cc(-c3noc(C4CCN(C(=O)C5CC(=O)N(c6ccccc6)C5)CC4)n3)ccc12 (stereo not shown)
8. COc1ccc(-c2noc(C3CCN(C(=O)CN)CC3)n2)cc1OC

1: > 45 µM; 2: > 45 µM; 3: > 45 µM; 4: > 45 µM; 5: > 45 µM; 6: 40.7 µM; 7: > 45 µM; 8: > 45 µM

For each of the compounds below, note its IC50.
1. CCN1CCOc2cc(-c3noc(C4CCN(C(=O)CNC(=O)c5ccccc5)CC4)n3)ccc21
2. COc1ccc(-c2noc(C3CCN(C(=O)CNC(=O)c4ccccc4)CC3)n2)cc1
3. Cc1nn(C)c2cc(-c3nsc(C4CCN(C(=O)CNC(=O)c5ccccn5)CC4)n3)ccc12
4. COc1ccc(-c2noc(C3CCN(C(=O)[C@@H]4CC(=O)N(c5ccc(C)c(C)c5)C4)CC3)n2)cc1 (single isomer, unassigned)

1: > 45 µM; 2: > 45 µM; 3: > 45 µM; 4: 33.7 µM

Find the recorded IC50 belonging to `CC(C)n1ncc2ccc(-c3noc(N4CCN(C(=O)OC5(C)CC5)CC4)n3)cc21` and report it.
> 45 µM

All figures here come from patent US11873298B2.
